What pEC50 was measured for each of the following?
Test system: RSV subgenomic replicon 395 HeLa and APC126
Test: RSV subgenomic replicon assay (Renilla luciferase)
Type: cell-based
Conditions: human respiratory syncytial virus; RSV replicon cells (395 HeLa 7 days or APC126 3 days); Table G = less than 1 μM, Table H = equal to or higher than 1 μM and less than 50 μM
pEC50: −log10 of the molar value.

Query :: Recorded pEC50 for COc1cc(C(=O)NC[C@@](O)(c2cc3c(c(-c4ccc(F)cc4)n2)OC[C@@]3(C)N)C(F)(F)F)cc2nc[nH]c12 , please?
Result :: > 6.00

Query :: Input COc1cc(C(=O)NC[C@](O)(c2cc3c(c(-c4ccc(F)cc4)n2)NCC[C@]3(C)N)C(F)(F)F)ccc1OC[C@@H](C)O
Result :: > 6.00

Query :: Entry C[C@@]1(N)COc2c1cc([C@](O)(CNC(=O)c1ccc(OCCO)c(OC3CC3)c1)C(F)(F)F)nc2-c1ccc(F)cc1 please
Result :: > 6.00
